- test-system: T1, human MSLN-FL-his protein (human, UniProt Q13421 296-580)
- T1 construct: made in HEK293E cells, purified on nickel column; also called hMSLN-FL-his; human MSLN full-length protein; not shown: His tag
- T1 sequence (Q13421 other isoform, or with tags, fused parts or gaps): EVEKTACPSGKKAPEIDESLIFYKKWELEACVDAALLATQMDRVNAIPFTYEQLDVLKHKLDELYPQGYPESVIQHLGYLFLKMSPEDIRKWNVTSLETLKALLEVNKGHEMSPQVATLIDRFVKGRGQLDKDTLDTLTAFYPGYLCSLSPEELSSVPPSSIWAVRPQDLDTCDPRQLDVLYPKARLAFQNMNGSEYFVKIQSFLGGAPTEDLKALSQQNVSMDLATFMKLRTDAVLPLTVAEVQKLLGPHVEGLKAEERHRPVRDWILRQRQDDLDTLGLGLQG
- procedure-details: competitive ELISA; row F8-12.13
competition rate vs 80%: less than gives Criterion met; not less than gives Criterion not met.

Hello, is competition rate of the following binder strictly smaller than 80%? S009-F8-12.13 (antibody, human IgG1, kappa, V domains shown, human-murine chimeric antibody, human IgG1/kappa constant regions) VH: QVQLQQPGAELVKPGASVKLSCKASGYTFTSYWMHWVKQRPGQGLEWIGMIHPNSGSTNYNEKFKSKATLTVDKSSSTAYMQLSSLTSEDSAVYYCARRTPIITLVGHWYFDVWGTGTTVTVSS VL: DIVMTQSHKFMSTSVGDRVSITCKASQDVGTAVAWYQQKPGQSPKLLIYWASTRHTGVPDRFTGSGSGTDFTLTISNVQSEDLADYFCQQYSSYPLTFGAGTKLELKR
Criterion not met

Hello, is competition rate of the following binder strictly smaller than 80%? S009-F8-13.8 (antibody, human IgG1, kappa, V domains shown, human-murine chimeric antibody, human IgG1/kappa constant regions) VH: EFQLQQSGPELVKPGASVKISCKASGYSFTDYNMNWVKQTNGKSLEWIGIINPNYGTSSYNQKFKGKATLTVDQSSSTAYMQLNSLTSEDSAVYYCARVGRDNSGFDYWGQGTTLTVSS VL: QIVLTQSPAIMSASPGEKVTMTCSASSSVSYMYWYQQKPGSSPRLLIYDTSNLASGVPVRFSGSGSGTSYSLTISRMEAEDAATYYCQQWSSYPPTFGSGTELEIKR
Criterion not met

Hello, is competition rate of the following binder strictly smaller than 80%? S009-F8-7.5 (antibody, human IgG1, kappa, V domains shown, human-murine chimeric antibody, human IgG1/kappa constant regions) VH: DVQLQESGPGLVKPSQSLSLTCSVTGYSITSGYYWNWIRQFPGNKLEWMAYIRYDGSNNYNPSLKNRISIIRDTSKNQFFLRLNSVTTEDTATYYCAKSYYGMDDWGQGISVTVSS VL: DIQMTQSPASLSASVGETVTITCRTSGDIHNYLAWYQQKQGKSPQLLVYKAKTLENGVPSRFTGSGSGTQFSLKIDSLQPEDFGTYYCQHFWTTPYTFGGGTKLEIKR
Criterion met

Hello, is competition rate of the following binder strictly smaller than 80%? S009-F8-31.22 (antibody, human IgG1, kappa, V domains shown, human-murine chimeric antibody, human IgG1/kappa constant regions) VH: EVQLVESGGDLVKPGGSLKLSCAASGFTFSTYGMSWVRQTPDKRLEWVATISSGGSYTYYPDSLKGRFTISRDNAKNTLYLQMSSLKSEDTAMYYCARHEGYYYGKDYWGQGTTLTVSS VL: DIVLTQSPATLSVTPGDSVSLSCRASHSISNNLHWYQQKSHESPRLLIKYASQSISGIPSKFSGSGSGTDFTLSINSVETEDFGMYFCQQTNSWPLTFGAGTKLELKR
Criterion met

Hello, is competition rate of the following binder strictly smaller than 80%? S009-F8-15.19 (antibody, human IgG1, kappa, V domains shown, human-murine chimeric antibody, human IgG1/kappa constant regions) VH: EFQLQQSGPELVKPGASVKISCKASGYSFTDYNMNWVKQSNGKSLEWIGIINPYYGTTSNNQNFKGKATLTVDQSSSTAYMQLNSLTSDDSAVYYCARWLRRDAMDYWGQGTSVTVSS VL: DIVMTPSHKFMSTSVGDRVSIACKASQDVGSSVAWYQQKPGQSPKLLIYWTSTRHTGVPDRFTGSGSGTDFTLTISNVQSEDLADYFCQQYSSYPWTFGGGTKLEIKR
Criterion not met

Hello, is competition rate of the following binder strictly smaller than 80%? S009-F8-27.1 (antibody, human IgG1, kappa, V domains shown, human-murine chimeric antibody, human IgG1/kappa constant regions) VH: EVQLVESGGGLVKPGGSLKLSCAASGFTFSSYAMSWVRQTPEKRLEWVATISDGGNYTYYPDNVKGRFTISRDNAKNNLYLQMSHLKSEDTAMYYCAGDRGYPYAMDSWGQGTSVTVSS VL: NIMMTQSPSSLAVSAGEKVTMSCKSSQSVLYSSNQKNYLAWYQQKPGQSPKLLIYWASTRESGVPDRFTGSGSGTDFTLTISNVHAEDLAVYYCHQYLSSLTFGAGTKLELKR
Criterion not met
